Where these numbers come from: the supplement of paper PMC13380429

test system: U2OS; experiment: drug sensitivity score (DSS) for viability; higher = more toxic; extreme values may be limits of the assay; conditions: 72 h
Listed below: drug sensitivity score values for each entry.

{"Compound": "Cc1nc(Nc2cnn(C3CCNCC3)c2)nc2c1N(C)C(=O)c1cc3ccccc3cc1N2C [HTH-01-015]", "drug sensitivity score": 2}
{"Compound": "c1ccc2oc(C3=NCCN3)cc2c1 [2-BFI]", "drug sensitivity score": 0}
{"Compound": "CO[C@H]1[C@H](O)[C@@H](O)[C@@H](O)[C@H](O)[C@@H]1O [pinitol]", "drug sensitivity score": 0}
{"Compound": "Oc1ccc(CC2NCCc3cc(O)c(O)cc32)cc1 (stereo unspecified) [higenamine]", "drug sensitivity score": 3.7}
{"Compound": "CN(C)CCCCSC(=N)N", "drug sensitivity score": 0}
{"Compound": "CCCCN1CCCCC1C(=O)Nc1c(C)cccc1C (stereo unspecified) [bupivacaine]", "drug sensitivity score": 0}
{"Compound": "O/N=C/c1cc[n+](COC[n+]2ccc(/C=N/O)cc2)cc1 [obidoxime]", "drug sensitivity score": 0}
{"Compound": "CC(=O)Nc1c(I)cc(I)c(C(=O)O)c1I [acetriazoic-acid]", "drug sensitivity score": 0}
{"Compound": "O=C(O)c1ccc2c(c1)nc(Nc1cccc(Cl)c1)c1ccncc12 [CX-4945]", "drug sensitivity score": 1.1}
{"Compound": "O=C(Oc1ccc(Br)cc1)N1CCN2CCC1CC2", "drug sensitivity score": 0}
{"Compound": "COc1ccc(-c2ccc3cc(C(=O)O)ccc3c2)cc1C12CC3CC(CC(C3)C1)C2 [adapalene]", "drug sensitivity score": 0}
{"Compound": "CCCC(O)C(CC)CO (stereo unspecified) [2-ethyl-1,3-hexanediol]", "drug sensitivity score": 0}
{"Compound": "O=c1oc2ccccc2c(O)c1Cc1c(O)c2ccccc2oc1=O [dicoumarol]", "drug sensitivity score": 0}
{"Compound": "Cc1cc(C)n(-c2cccc([C@H](CC(=O)O)CN3CC[C@@H](CCc4ccc5c(n4)NCCC5)C3)c2)n1 [integrin-antagonist-1]", "drug sensitivity score": 0}
{"Compound": "C[C@]12CCC(=O)C=C1C=C[C@@H]1[C@@H]2CC[C@@]2(C)[C@H]1CC[C@@]2(O)CCC(=O)O [potassium-canrenoate]", "drug sensitivity score": 0}
{"Compound": "O=C1[O][SbH]23[O]C(=O)C([O]2)C2[O][SbH]4([O]C(=O)C([O]4)C1[O]3)[O]C2=O [antimonyl]", "drug sensitivity score": 0.5}
{"Compound": "O=S(=O)(c1cccc2c(O)nccc12)N1CCCNCC1 [hydroxyfasudil]", "drug sensitivity score": 0}
{"Compound": "Cc1cc(C(=O)N2Cc3cnn(C)c3Nc3ccccc32)ccc1CNC(=O)N1CCC[C@H]1C(=S)N1CCCN(C)CC1 [TC-OT-39]", "drug sensitivity score": 0}
{"Compound": "CCc1cc(-c2[nH]nc(C)c2-c2ccc3c(c2)OCCO3)c(O)cc1O", "drug sensitivity score": 1.6}
{"Compound": "S=C(S)N1CCCC1 [pyrrolidine-dithiocarbamate]", "drug sensitivity score": 2.8}
{"Compound": "O=C(NC1CCC1)c1ccc(C#Cc2cccc(F)c2)nc1", "drug sensitivity score": 0}
{"Compound": "CCC(CC)Nc1nc(C)c(-c2ccc(OC(F)(F)F)cc2OC)nc1OC [NGD-98-2]", "drug sensitivity score": 0}
{"Compound": "O=[N+]([O-])/N=C1\\NCCN1Cc1ccc(Cl)nc1 [imidacloprid]", "drug sensitivity score": 0}
{"Compound": "NS(=O)(=O)c1cc2c(cc1Cl)NC(CC1CCCC1)NS2(=O)=O (stereo unspecified) [cyclopenthiazide]", "drug sensitivity score": 0}
{"Compound": "C=C[C@]1(C)C[C@@H](OC(=O)CSC(C)(C)CNC(=O)[C@H](N)C(C)C)[C@]2(C)[C@H](C)CC[C@]3(CCC(=O)[C@H]32)[C@@H](C)[C@@H]1O [valnemulin]", "drug sensitivity score": 1.1}
{"Compound": "Cn1c(=O)cnn(CCCCN2CCN(c3ncccn3)CC2)c1=O", "drug sensitivity score": 0}
{"Compound": "Cc1cc(S(=O)(=O)O)c2c(C)ccc(C(C)C)cc1-2 [sodium-gualenate]", "drug sensitivity score": 0}
{"Compound": "C/C=C/C=C/C(=O)O [sorbic-acid]", "drug sensitivity score": 0}
{"Compound": "c1ccc2sc(SNC3CCCCC3)nc2c1 [N-cyclohexyl-2-benzothiazolesulfenamide]", "drug sensitivity score": 0}
{"Compound": "CCC(=O)O[C@]1(C(=O)CO)CC[C@H]2[C@@H]3CCC4=CC(=O)CC[C@]4(C)[C@H]3CC[C@@]21C [CB-03-01]", "drug sensitivity score": 0}
{"Compound": "COc1cc2c(=O)c(-c3ccc(O)cc3)coc2cc1O [glycitein]", "drug sensitivity score": 0}
{"Compound": "CC1(C)S[C@@H]2[C@H](NC(=O)[C@H](N)c3ccc(O)cc3)C(=O)N2[C@H]1C(=O)O [amoxicillin]", "drug sensitivity score": 0}
{"Compound": "COc1cc(NC(=O)Nc2cccc(CNC(=O)O[C@H]3CCOC3)c2)ccc1-c1cnco1 [merimepodib]", "drug sensitivity score": 3.7}
{"Compound": "O=C1c2ccc(Nc3ccc(F)cc3F)cc2CCc2ccc(OC[C@H](O)CO)cc21 [skepinone-L]", "drug sensitivity score": 0.1}
{"Compound": "Cc1ccccc1N(C)C(=O)c1ccc([S+]([O-])c2nccs2)c([N+](=O)[O-])c1 (stereo unspecified)", "drug sensitivity score": 12.5}
{"Compound": "CC(C)(C)Sc1c(CC(C)(C)C(=O)O)n(Cc2ccc(Cl)cc2)c2ccc(OCc3ccc4ccccc4n3)cc12 [quiflapon]", "drug sensitivity score": 0}

###

test system: HepG2; assay: cell viability relative to DMSO; higher = less toxic; conditions: 72 h; 10 nM
Value type: cell viability (%)

{"Compound": "N=C(N)NCCN1CCCCCCC1 [guanethidine]", "Reported result": 102}
{"Compound": "CC(C)C[C@@H](NC(=O)[C@H](C)NC(=O)CNC(=O)[C@@H](NC=O)C(C)C)C(=O)N[C@@H](C)C(=O)N[C@@H](C(=O)N[C@H](C(=O)N[C@@H](C(=O)N[C@@H](Cc1c[nH]c2ccccc12)C(=O)N[C@H](CC(C)C)C(=O)N[C@@H](Cc1c[nH]c2ccccc12)C(=O)N[C@H](CC(C)C)C(=O)N[C@@H](Cc1c[nH]c2ccccc12)C(=O)N[C@H](CC(C)C)C(=O)N[C@@H](Cc1c[nH]c2ccccc12)C(=O)NCCO)C(C)C)C(C)C)C(C)C [gramicidin]", "Reported result": 100}
{"Compound": "CC1(C)C(/C=C/C=C/C=C/C=C2\\N(CCCCS(=O)(=O)O)c3ccc4ccccc4c3C2(C)C)=[N+](CCCCS(=O)(=O)[O-])c2ccc3ccccc3c21 [indocyanine-green]", "Reported result": 89.4}
{"Compound": "COc1ccccc1N1CCN(CCN2C(=O)CC3(CCCC3)CC2=O)CC1 [BMY-7378]", "Reported result": 102}

###

system: U2OS; assay: relative viability EC50 (midpoint between 100% and the lowest measured viability); higher = less toxic; conditions: 72 h

{"Compound": "COc1cc(OC)c(/C=C/S(=O)(=O)Cc2ccc(OC)c(OP(=O)(O)O)c2)c(OC)c1 [briciclib]", "relative viability EC50": "0.161 µM"}
{"Compound": "O=[N+]([O-])O[C@@H]1CO[C@H]2[C@@H]1OC[C@@H]2O [isosorbide-mononitrate]", "relative viability EC50": "> 10 µM"}
{"Compound": "CCCS(=O)(=O)Nc1ccc(F)c(C(=O)c2c[nH]c3ncc(Cl)cc23)c1F [PLX4720]", "relative viability EC50": "> 10 µM"}
{"Compound": "c1ccc2oc(C3=NCCN3)cc2c1 [2-BFI]", "relative viability EC50": "> 10 µM"}
{"Compound": "CCn1cc(-c2cccc(C(F)(F)F)c2)c2sc(C(=N)NC3CCS(=O)(=O)CC3)cc2c1=O [I-BRD9]", "relative viability EC50": "> 10 µM"}
{"Compound": "Cc1nc(NC(=O)N2CCC[C@H]2C(N)=O)sc1-c1csc(C(C)(C)C)n1 [A66]", "relative viability EC50": "> 10 µM"}

###

tested on: Vero E6; assay: drug sensitivity score (DSS) for viability; higher = more toxic; extreme values may be limits of the assay; settings: 72 h
Listed below: drug sensitivity score values for each entry.

{"Compound": "Oc1cccc(O)c1", "Assayed target": "Vero E6", "drug sensitivity score": 0}
{"Compound": "O=[N+]([O-])O[C@@H]1CO[C@H]2[C@@H]1OC[C@@H]2O [isosorbide-mononitrate]", "Assayed target": "Vero E6", "drug sensitivity score": 0}
{"Compound": "CC(=O)O[C@]1(C(C)=O)CC[C@H]2[C@@H]3CCC4=CC(=O)CCC4=C3[C@@H](c3ccc(N(C)C)cc3)C[C@@]21C [Ulipristal acetate]", "Assayed target": "Vero E6", "drug sensitivity score": 0}
{"Compound": "CC(NC(C)(C)C)C(=O)c1cccc(Cl)c1 (stereo not given)", "Assayed target": "Vero E6", "drug sensitivity score": 1.3}
{"Compound": "C[C@H](Cc1ccc(OCC(=O)O)cc1)NC[C@H](O)c1cccc(Cl)c1", "Assayed target": "Vero E6", "drug sensitivity score": 0}
